biological target: BRM (Homo sapiens, UniProt P51531); assay: ATPase catalytic activity assay (ADP-Glo), BRM; conditions: BRM ATPase: IC50 (uM), 30 nM BRM, 400 μM ATP
Sequence (P51531 whole entry): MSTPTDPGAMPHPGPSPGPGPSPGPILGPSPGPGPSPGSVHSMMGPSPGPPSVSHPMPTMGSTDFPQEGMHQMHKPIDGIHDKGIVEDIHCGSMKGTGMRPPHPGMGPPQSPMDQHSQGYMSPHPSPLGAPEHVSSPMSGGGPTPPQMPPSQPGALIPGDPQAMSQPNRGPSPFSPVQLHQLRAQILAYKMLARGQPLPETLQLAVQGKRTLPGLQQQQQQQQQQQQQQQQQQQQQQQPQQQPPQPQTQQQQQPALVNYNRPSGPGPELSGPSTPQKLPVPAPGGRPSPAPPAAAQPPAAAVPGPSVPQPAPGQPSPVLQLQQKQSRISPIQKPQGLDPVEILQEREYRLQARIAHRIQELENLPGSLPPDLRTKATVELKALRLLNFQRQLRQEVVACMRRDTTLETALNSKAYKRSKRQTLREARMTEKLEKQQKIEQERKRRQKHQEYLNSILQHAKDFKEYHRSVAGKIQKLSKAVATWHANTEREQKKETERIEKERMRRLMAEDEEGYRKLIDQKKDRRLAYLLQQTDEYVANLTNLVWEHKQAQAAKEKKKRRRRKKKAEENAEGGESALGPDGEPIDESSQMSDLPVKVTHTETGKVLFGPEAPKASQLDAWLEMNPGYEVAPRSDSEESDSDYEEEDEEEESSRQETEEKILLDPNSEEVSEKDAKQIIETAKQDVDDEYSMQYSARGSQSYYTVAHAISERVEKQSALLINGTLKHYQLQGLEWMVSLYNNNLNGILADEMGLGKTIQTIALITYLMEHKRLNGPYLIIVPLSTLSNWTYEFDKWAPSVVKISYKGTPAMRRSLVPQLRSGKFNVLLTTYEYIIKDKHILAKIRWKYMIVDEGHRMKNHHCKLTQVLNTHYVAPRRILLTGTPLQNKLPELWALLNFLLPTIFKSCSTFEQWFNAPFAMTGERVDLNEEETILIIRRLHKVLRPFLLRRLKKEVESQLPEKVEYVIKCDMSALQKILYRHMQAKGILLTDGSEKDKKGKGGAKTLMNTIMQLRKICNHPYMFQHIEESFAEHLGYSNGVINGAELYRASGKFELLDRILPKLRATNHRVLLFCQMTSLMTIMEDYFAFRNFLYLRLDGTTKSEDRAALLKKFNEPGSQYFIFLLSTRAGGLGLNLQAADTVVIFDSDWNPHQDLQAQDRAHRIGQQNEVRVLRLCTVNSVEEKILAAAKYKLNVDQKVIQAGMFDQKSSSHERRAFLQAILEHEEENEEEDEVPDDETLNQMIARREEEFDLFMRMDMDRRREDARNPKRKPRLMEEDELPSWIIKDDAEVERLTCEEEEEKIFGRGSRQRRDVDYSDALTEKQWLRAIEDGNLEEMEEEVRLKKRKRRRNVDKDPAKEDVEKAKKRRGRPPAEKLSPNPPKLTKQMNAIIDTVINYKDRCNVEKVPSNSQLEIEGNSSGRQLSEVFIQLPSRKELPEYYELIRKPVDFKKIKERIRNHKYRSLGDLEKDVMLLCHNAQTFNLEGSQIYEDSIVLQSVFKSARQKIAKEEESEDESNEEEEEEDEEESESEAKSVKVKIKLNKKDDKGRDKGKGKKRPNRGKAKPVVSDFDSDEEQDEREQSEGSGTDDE
Readout name: IC50

1) Cn1cc(-c2ccc3cnc(CNC(=O)c4ccc5c(c4)[C@](C)(C#N)COC5)cc3n2)c(F)n1 | 0.1 to 0.5 µM
2) C[C@@]1(C#N)COCc2ccc(C(=O)NCc3cc4nc(-c5ccc(N6CCC6)cc5)ccc4cn3)cc21 | 0.1 to 0.5 µM
3) CO[C@@H]1CCN(c2cncc(-c3ccc4cnc(CNC(=O)c5ccc6c(c5)[C@](C)(F)COC6)cc4c3)n2)C1 | < 0.1 µM
4) CN1CCC(NC(=O)c2cccc(-c3ccc4cnc(CNC(=O)c5ccc6c(c5)[C@](C)(C#N)COC6)cc4n3)c2)CC1 | 0.1 to 0.5 µM
5) O=C(NCc1cc2nc(-c3ccccc3)ccc2cn1)c1cccc(C2(C(F)F)COC2)c1 | 0.5 to 1 µM
6) COc1nn(C2CCC2)cc1-c1ccc2cnc(CNC(=O)c3ccc4c(c3)[C@](C)(C#N)COC4)cc2n1 | 0.1 to 0.5 µM
7) C[C@@]1(F)COCc2ncc(C(=O)NCc3cc4nc(-c5ccnc(N6CCC6)c5F)cnc4cn3)cc21 | < 0.1 µM
